Target Desc: Cbl-b (Homo sapiens)
Sequence (Q13191 36-427): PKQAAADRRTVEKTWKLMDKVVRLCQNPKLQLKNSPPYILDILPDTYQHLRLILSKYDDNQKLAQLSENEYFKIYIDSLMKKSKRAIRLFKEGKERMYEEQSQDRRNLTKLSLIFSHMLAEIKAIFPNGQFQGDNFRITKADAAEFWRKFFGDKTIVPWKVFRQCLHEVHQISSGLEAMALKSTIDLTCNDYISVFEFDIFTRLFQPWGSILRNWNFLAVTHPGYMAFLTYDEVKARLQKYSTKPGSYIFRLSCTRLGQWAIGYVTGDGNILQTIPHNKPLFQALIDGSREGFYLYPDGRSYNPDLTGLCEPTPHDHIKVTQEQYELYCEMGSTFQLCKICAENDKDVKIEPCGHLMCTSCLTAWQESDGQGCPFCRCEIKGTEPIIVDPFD
Protocol: Cbl-b inhibition assay (Cbl-b activity assay, FRET, Biological Example 1; 100 mM NaCl, 60 nM Src kinase)
Assay type: biochemical
Measurement Setup: upper bound stated in text lists; read-out: IC50 values in the Cbl-b inhibition assay of Biological Example 1
Task for the reader: assign each of the following compounds its reported IC50.

### Prompt Dear colleague, I am looking for the recorded IC50 of the following compound: CC(C)Nc1cc([C@H](C)Cc2nncn2C)cc(N2Cc3c(cccc3C(F)(F)F)C2=O)n1
### Response ≤ 100 nM

### Prompt So what does the record say about IC50 for Cc1cc(C(=O)Nc2cccc([C@@]3(Cc4nncn4C)CCOC3)c2)nc(C2CC2)n1 (single isomer, unassigned) [Compound 534b] ?
### Response ≤ 100 nM

### Prompt Query (compound): C[C@H](Sc1nncn1C)c1cccc(NC(=O)c2cc(C(=O)N3CC[C@@H](N)C3)ccn2)c1 ; field requested: IC50
### Response ≤ 10000 nM

### Prompt Can you look up the measured IC50 of CC(c1cc2c(c(C3CC3)n1)CN(c1cccc(C3(Cc4nncn4C)COC3)c1)C2=O)N1CCC2(CC2)C1 (stereo not shown) for me?
### Response ≤ 100 nM

### Prompt IC50 lookup needed for Cn1cnnc1CC1(c2cccc(N3Cc4c(cc(CN5CCCCC(F)C5)cc4C(F)(F)F)C3=O)c2)COC1 (stereo not shown) , thanks.
### Response ≤ 100 nM

### Prompt Please look up its IC50: Cn1cnnc1CC1(c2cccc(N3Cc4c(cc(CN5CCOC6(CC6)C5)cc4C(F)(F)F)C3=O)c2)COC1
### Response ≤ 100 nM

### Prompt Query (compound): C[C@H](Sc1nncn1C)c1cccc(NC(=O)c2nc(C(F)(F)F)cs2)c1 ; field requested: IC50
### Response ≤ 1000 nM

* * *

Test system: primary human total T-cells
Protocol: T-cell activation assessed by cell proliferation (Cell Trace Violet)
Format: cell-based
Measurement Setup: CD3 alone stimulation, CD8 T-cells, 1.11 μM, read-out: % CP (cell proliferation) (CD8)
What fold induction at 1.11 µM was measured for each of the following?

### Prompt Form field: reported fold induction at 1.11 µM of C[C@H](Cc1nncn1C)c1cccc(NC(=O)c2cc3cc(N4CCNCC4)ccc3cn2)c1
### Response 2.01 to 3

### Prompt Given the entry C[C@H](Sc1nncn1C)c1cccc(NC(=O)c2cc(C(=O)N3CC[C@H](O)C3)ccn2)c1 , report its measured fold induction at 1.11 µM.
### Response > 4

### Prompt What value of measured fold induction at 1.11 µM is listed for C[C@H](Cc1nncn1C)c1cccc(NC(=O)c2nc(C(F)(F)F)c[nH]2)c1 ?
### Response 2.01 to 3

### Prompt Requested field: fold induction at 1.11 µM. Item: CNCc1ccc(C(=O)Nc2cccc([C@H](C)Cc3nncn3C)c2)nc1C1CC1
### Response > 4

### Prompt Suppose we examine the molecule C[C@H](c1cc2c(c(C(F)(F)F)c1)CN(c1cccc(C3(Cc4nncn4C)COC3)c1)C2=O)N1CC[C@H](F)C1 ; what fold induction at 1.11 µM value has been reported?
### Response 3.01 to 4

### Prompt # get_value(readout='fold induction at 1.11 µM', item= Cn1cnnc1C(F)(F)[C@](C)(F)c1cccc(N2Cc3c(cc(CN4CC[C@@H](C#N)C4)cc3C(F)(F)F)C2=O)c1 )
### Response > 4

### Prompt Consider the molecule C[C@H](Cc1nncn1C)c1cccc(NC(=O)c2cccc(CCO)n2)c1 and give its measured fold induction at 1.11 µM.
### Response < 2

### Prompt Look up fold induction at 1.11 µM: Cn1cnnc1CC1(c2cccc(NC(=O)c3nc4c(C(F)(F)F)cccc4[nH]3)c2)COC1
### Response > 4

### Prompt Fill blank: measured fold induction at 1.11 µM of the molecule Cc1cc(C(=O)Nc2cccc([C@H](C)Cc3nncn3C)c2)nc(C2CC2)n1 is ____.
### Response < 2

### Prompt # get_value(readout='fold induction at 1.11 µM', item= C[C@H](Cc1nncn1C)c1cccc(NC(=O)c2cccc(C(F)(F)F)n2)c1 [Compound 183a] )
### Response 3.01 to 4

### Prompt Returns the measured fold induction at 1.11 µM for the input molecule. Input: C[C@H](Cc1nncn1C)c1cccc(N2Cc3c(cc(CN4CC(O)C4)cc3C(F)(F)F)C2=O)c1
### Response < 2

### Prompt Look up fold induction at 1.11 µM for this molecule: Cc1n[nH]c(C)c1-c1cc2c(c(C(F)(F)F)c1)CN(c1cccc(C3(Cc4nncn4C)COC3)c1)C2=O
### Response 3.01 to 4

These data points were gathered from patent US20220324835A1.
